test_name: Oral pharmacokinetics and tissue distribution of PTG-630 (blood brain barrier penetration)
Type: in vivo, Sprague-Dawley rats
assay_setup: male, Sprague-Dawley, rat, plasma, po
experimental_endpoint: Tmax (h)
Hi! Could you send only the number? It should be in h, unit omitted.

Sample Cc1ncc(CN2CCOCC2)c(-c2ncc[nH]2)c1O [PTG-630] — what was its Tmax?
1

---

test_name: Oral pharmacokinetics and tissue distribution of PTG-630 (blood brain barrier penetration)
Assay type: in vivo, Sprague-Dawley rats
assay_setup: male, Sprague-Dawley, rat; Liver, 4.0 h, PO, mean
experimental_endpoint: concentration at 4 h (ng/mL)
Hi! Could you send only the number? It should be in ng/mL, unit omitted.

Sample "Cc1ncc(CN2CCOCC2)c(-c2ncc[nH]2)c1O" — what was its concentration at 4 h?
2420

---

test_name: Oral pharmacokinetics and tissue distribution of PTG-630 (blood brain barrier penetration)
Assay type: in vivo, Sprague-Dawley rats
Design: concentration or dose not given beside the values
assay_setup: male, Sprague-Dawley, rat, brain, po
experimental_endpoint: AUC(0-t) (ng·h/mL)
Hi! Could you send only the number? It should be in ng·h/mL, unit omitted.

Sample Cc1ncc(CN2CCOCC2)c(-c2ncc[nH]2)c1O [PTG-630] — what was its AUC(0-t)?
5130

---

test_name: Oral pharmacokinetics and tissue distribution of PTG-630 (blood brain barrier penetration)
Assay type: in vivo, Sprague-Dawley rats
assay_setup: male, Sprague-Dawley, rat, selected tissues vs plasma, po; read-out: exposure in selected tissues relative to exposure in plasma
experimental_endpoint: Kp

Sample "Cc1ncc(CN2CCOCC2)c(-c2ncc[nH]2)c1O" — what was its Kp?
3 to 5

---

test_name: Oral pharmacokinetics and tissue distribution of PTG-630 (blood brain barrier penetration)
Format: in vivo, Sprague-Dawley rats
assay_setup: male, Sprague-Dawley, rat; Muscle, 6.0 h, PO, mean
experimental_endpoint: concentration at 6 h

Sample Cc1ncc(CN2CCOCC2)c(-c2ncc[nH]2)c1O [PTG-630] — what was its concentration at 6 h?
0.245 µg/mL

---

test_name: Oral pharmacokinetics and tissue distribution of PTG-630 (blood brain barrier penetration)
Type: in vivo, Sprague-Dawley rats
assay_setup: male, Sprague-Dawley, rat; Sciatic Nerve, 2.0 h, PO, mean
experimental_endpoint: concentration at 2 h (ng/mL)
Hi! Could you send only the number? It should be in ng/mL, unit omitted.

Sample Cc1ncc(CN2CCOCC2)c(-c2ncc[nH]2)c1O [PTG-630] — what was its concentration at 2 h?
510

---

test_name: Oral pharmacokinetics and tissue distribution of PTG-630 (blood brain barrier penetration)
Format: in vivo, Sprague-Dawley rats
assay_setup: male, Sprague-Dawley, rat; Plasma, 2.0 h, PO, mean
experimental_endpoint: concentration at 2 h (ng/mL)
Hi! Could you send only the number? It should be in ng/mL, unit omitted.

Sample "Cc1ncc(CN2CCOCC2)c(-c2ncc[nH]2)c1O" — what was its concentration at 2 h?
274

---

test_name: Oral pharmacokinetics and tissue distribution of PTG-630 (blood brain barrier penetration)
Assay type: in vivo, Sprague-Dawley rats
assay_setup: male, Sprague-Dawley, rat; Liver, 0.50 h, PO, mean
experimental_endpoint: concentration at 0.5 h (ng/mL)
Hi! Could you send only the number? It should be in ng/mL, unit omitted.

Sample "Cc1ncc(CN2CCOCC2)c(-c2ncc[nH]2)c1O" — what was its concentration at 0.5 h?
5720

---

test_name: Oral pharmacokinetics and tissue distribution of PTG-630 (blood brain barrier penetration)
Assay type: in vivo, Sprague-Dawley rats
assay_setup: male, Sprague-Dawley, rat; Sciatic Nerve, 1.0 h, PO, mean
experimental_endpoint: concentration at 1 h (ng/mL)
Hi! Could you send only the number? It should be in ng/mL, unit omitted.

Sample "Cc1ncc(CN2CCOCC2)c(-c2ncc[nH]2)c1O" — what was its concentration at 1 h?
1830

---

test_name: Oral pharmacokinetics and tissue distribution of PTG-630 (blood brain barrier penetration)
Format: in vivo, Sprague-Dawley rats
Design: concentration or dose not given beside the values
assay_setup: male, Sprague-Dawley, rat, plasma, po
Method: This was a study in male Sprague-Dawley rats. The primary objective was to assess the IV and PO pharmacokinetics of PTG-630. […] Twelve non-cannulated animals were arbitrarily assigned to groups upon arrival and housed together throughout the experiment. […] Tissues samples were analyzed for concentration of PTG-630.
experimental_endpoint: AUC(0-t) (ng·h/mL)
Hi! Could you send only the number? It should be in ng·h/mL, unit omitted.

Sample "Cc1ncc(CN2CCOCC2)c(-c2ncc[nH]2)c1O" — what was its AUC(0-t)?
8600

---

test_name: Oral pharmacokinetics and tissue distribution of PTG-630 (blood brain barrier penetration)
Type: in vivo, Sprague-Dawley rats
assay_setup: male, Sprague-Dawley, rat; Kidney, 1.0 h, PO, mean
experimental_endpoint: concentration at 1 h (ng/mL)
Hi! Could you send only the number? It should be in ng/mL, unit omitted.

Sample Cc1ncc(CN2CCOCC2)c(-c2ncc[nH]2)c1O [PTG-630] — what was its concentration at 1 h?
3880

---

test_name: Oral pharmacokinetics and tissue distribution of PTG-630 (blood brain barrier penetration)
Type: in vivo, Sprague-Dawley rats
Design: concentration or dose not given beside the values
assay_setup: male, Sprague-Dawley, rat, kidney, po
experimental_endpoint: AUC(0-t) (ng·h/mL)
Hi! Could you send only the number? It should be in ng·h/mL, unit omitted.

Sample "Cc1ncc(CN2CCOCC2)c(-c2ncc[nH]2)c1O" — what was its AUC(0-t)?
9770

---

test_name: Oral pharmacokinetics and tissue distribution of PTG-630 (blood brain barrier penetration)
Assay type: in vivo, Sprague-Dawley rats
assay_setup: male, Sprague-Dawley, rat; Sciatic Nerve, 6.0 h, PO, mean
experimental_endpoint: concentration at 6 h (ng/mL)
Hi! Could you send only the number? It should be in ng/mL, unit omitted.

Sample "Cc1ncc(CN2CCOCC2)c(-c2ncc[nH]2)c1O" — what was its concentration at 6 h?
690

---

test_name: Oral pharmacokinetics and tissue distribution of PTG-630 (blood brain barrier penetration)
Format: in vivo, Sprague-Dawley rats
assay_setup: male, Sprague-Dawley, rat, kidney, po
experimental_endpoint: Tmax (h)
Hi! Could you send only the number? It should be in h, unit omitted.

Sample "Cc1ncc(CN2CCOCC2)c(-c2ncc[nH]2)c1O" — what was its Tmax?
1

---

test_name: Oral pharmacokinetics and tissue distribution of PTG-630 (blood brain barrier penetration)
Assay type: in vivo, Sprague-Dawley rats
assay_setup: male, Sprague-Dawley, rat; Brain, 6.0 h, PO, mean
experimental_endpoint: concentration at 6 h (ng/mL)
Hi! Could you send only the number? It should be in ng/mL, unit omitted.

Sample Cc1ncc(CN2CCOCC2)c(-c2ncc[nH]2)c1O [PTG-630] — what was its concentration at 6 h?
244

---

test_name: Oral pharmacokinetics and tissue distribution of PTG-630 (blood brain barrier penetration)
Assay type: in vivo, Sprague-Dawley rats
assay_setup: male, Sprague-Dawley, rat; Liver, 2.0 h, PO, mean
Protocol: This was a study in male Sprague-Dawley rats. The primary objective was to assess the IV and PO pharmacokinetics of PTG-630. […] Twelve non-cannulated animals were arbitrarily assigned to groups upon arrival and housed together throughout the experiment. […] Tissues samples were analyzed for concentration of PTG-630.
experimental_endpoint: concentration at 2 h (ng/mL)
Hi! Could you send only the number? It should be in ng/mL, unit omitted.

Sample Cc1ncc(CN2CCOCC2)c(-c2ncc[nH]2)c1O [PTG-630] — what was its concentration at 2 h?
5080

---

test_name: Oral pharmacokinetics and tissue distribution of PTG-630 (blood brain barrier penetration)
Assay type: in vivo, Sprague-Dawley rats
assay_setup: male, Sprague-Dawley, rat; Muscle, 2.0 h, PO, mean
experimental_endpoint: concentration at 2 h (ng/mL)
Hi! Could you send only the number? It should be in ng/mL, unit omitted.

Sample "Cc1ncc(CN2CCOCC2)c(-c2ncc[nH]2)c1O" — what was its concentration at 2 h?
290

---

test_name: Oral pharmacokinetics and tissue distribution of PTG-630 (blood brain barrier penetration)
Type: in vivo, Sprague-Dawley rats
assay_setup: male, Sprague-Dawley, rat; Plasma, 4.0 h, PO, mean
Procedure: This was a study in male Sprague-Dawley rats. The primary objective was to assess the IV and PO pharmacokinetics of PTG-630. […] Twelve non-cannulated animals were arbitrarily assigned to groups upon arrival and housed together throughout the experiment. […] Tissues samples were analyzed for concentration of PTG-630.
experimental_endpoint: concentration at 4 h

Sample Cc1ncc(CN2CCOCC2)c(-c2ncc[nH]2)c1O [PTG-630] — what was its concentration at 4 h?
794 ng/mL

---

test_name: Oral pharmacokinetics and tissue distribution of PTG-630 (blood brain barrier penetration)
Type: in vivo, Sprague-Dawley rats
Parameters: concentration or dose not given beside the values
assay_setup: male, Sprague-Dawley, rat, kidney, po
experimental_endpoint: AUC(0-inf) (ng·h/mL)
Hi! Could you send only the number? It should be in ng·h/mL, unit omitted.

Sample "Cc1ncc(CN2CCOCC2)c(-c2ncc[nH]2)c1O" — what was its AUC(0-inf)?
11400

---

test_name: Oral pharmacokinetics and tissue distribution of PTG-630 (blood brain barrier penetration)
Format: in vivo, Sprague-Dawley rats
assay_setup: male, Sprague-Dawley, rat, brain, po
experimental_endpoint: Cmax (ng/mL)
Hi! Could you send only the number? It should be in ng/mL, unit omitted.

Sample "Cc1ncc(CN2CCOCC2)c(-c2ncc[nH]2)c1O" — what was its Cmax?
1990
